Each recorded value in this set is attributed to patent US20250034116A1.

Reported HLM (% inh @ 500 nM) values for the following compounds.
System: CYP enzymes in human liver microsomes (HLM)
Test: Inhibition of 20-HETE production in human liver microsomes (HLM)
Type: biochemical
Conditions: 500 nM
Reported endpoint: HLM (% inh @ 500 nM)

In [3]: df
Out[3]:
                         chemical_structure     reported_endpoint  value_reported
0  O=C(CCCCCc1ccccc1)NCC1CCN(c2ccc(-c3cn[nH]c3)cc2)CC1  HLM (% inh @ 500 nM)          87.72%
1  O=C(N1CCCC1)N1CCN(c2ccc(-c3cn[nH]c3)cc2F)CC1  HLM (% inh @ 500 nM)          89.94%
2  C[C@H]1CN(C(=O)N2CCCC2)CCN1c1ccc(-c2cn[nH]c2)c(F)c1F  HLM (% inh @ 500 nM)          84.23%
